Record form. Attribute: IC50. Fill in for each entry.
- Measurement Target: CCR5 (Homo sapiens (Human), UniProt P51681)
- Sequence (P51681 whole entry): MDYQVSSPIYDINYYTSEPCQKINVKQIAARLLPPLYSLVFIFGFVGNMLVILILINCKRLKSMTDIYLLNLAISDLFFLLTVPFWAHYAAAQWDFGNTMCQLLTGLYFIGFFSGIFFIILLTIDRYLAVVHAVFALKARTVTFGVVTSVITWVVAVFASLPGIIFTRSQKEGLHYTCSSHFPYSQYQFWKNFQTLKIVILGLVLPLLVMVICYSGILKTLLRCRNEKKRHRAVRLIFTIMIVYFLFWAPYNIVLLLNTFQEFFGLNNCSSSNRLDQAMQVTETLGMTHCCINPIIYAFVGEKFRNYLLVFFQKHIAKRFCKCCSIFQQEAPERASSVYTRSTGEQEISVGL
- Protocol Description: Calcium flux inhibition experiment
- Assay type: cell-based
- Experimental Parameters: HEK293/CCR5-Gα16 cell line, calcium flux; read-out: CCR5 IC50
Give bare numbers, in µM.

Compound: COC(=O)c1ccc([C@H](CCN2C3CCC2CC(n2c(C)nnc2C(C)C)C3)NC(=O)C2CCC(F)(F)CC2)s1 (stereo partly drawn)
Measurement Target: CCR5 (Homo sapiens (Human), UniProt P51681)
IC50 [µM]: 0.00926

Compound: CCCC(=O)N1CCc2c(nc(C)n2C2CC3CCC(C2)N3CC[C@H](NC(C)=O)c2nccs2)C1 (stereo partly drawn)
Measurement Target: CCR5 (Homo sapiens (Human), UniProt P51681)
IC50 [µM]: 0.0121

Input: Field request: IC50 | item: CC(=O)Nc1ccc([C@H](CCN2C3CCC2CC(n2c(C)nnc2C(C)C)C3)NC(=O)C2CCCC2)s1 (stereo partly drawn)
Output: 0.0123
